meta.source: patent US20260103465A1

system: MDR1-MDCK cell monolayers; experiment: MDR1/MDCK permeability assay; type: in vitro ADME; conditions: B to A; Table 3
Some compounds, each annotated with its measured MDCK Permeability (MDR1-MDCK); Mean; Papp(B-A) (10^−6 cm/s).
Test readout: MDCK Permeability (MDR1-MDCK); Mean; Papp(B-A) (10^−6 cm/s)

Compound	Recorded value
CC(C)(C)Cc1cnc2c(c1)C(C)(c1ccccc1)C1=C(CC(C)(C)CC1=O)N2 (single isomer, unassigned) [Compound 129B]	1.0 10^−6 cm/s
CC1(C)CC(=O)C2=C(C1)Nc1ncc(F)cc1C2(C)c1cccc(S(C)(=O)=O)c1 (single isomer, unassigned) [Compound 139A]	75 10^−6 cm/s
CC(C)(C)Cc1cnc2c(c1)C(C)(c1ccccc1)C1=C(CC(C)(C)CC1=O)N2 (single isomer, unassigned) [Compound 129A]	1.2 10^−6 cm/s
CC1(C)CC(=O)C2=C(C1)Nc1ncc(F)cc1C2(C)c1ccccc1 (single isomer, unassigned) [Compound 107B]	18 10^−6 cm/s
CC1(C)CC(=O)C2=C(C1)Nc1nccc(C#N)c1C2(C)c1ccccc1 (single isomer, unassigned) [Compound 108A]	56 10^−6 cm/s
CCC1(c2cccc(-c3c(F)cncc3OC)c2)C2=C(CC(C)(C)CC2=O)Nc2ncc(F)cc21 (single isomer, unassigned) [Compound 161A]	6.9 10^−6 cm/s
CC1(C)CC(=O)C2=C(C1)Nc1nccc(C(F)(F)F)c1C2(C)c1ccccc1 (single isomer, unassigned) [Compound 127A]	8.7 10^−6 cm/s
CC(C)(C)Cc1ccnc2c1C(C)(c1ccccc1)C1=C(CC(C)(C)CC1=O)N2 (single isomer, unassigned) [Compound 130B]	0.75 10^−6 cm/s
CC1(C)CC(=O)C2=C(C1)Nc1ncc(C(F)(F)F)cc1C2(C)c1ccccc1 (single isomer, unassigned) [Compound 128B]	10 10^−6 cm/s
CCC1(c2ccccc2)C2=C(CC(C)(C)CC2=O)Nc2ncc(F)cc21 (single isomer, unassigned) [Compound 114A]	16 10^−6 cm/s
CC(C)(C)Cc1cnccc1-c1cccc(C2(C)C3=C(CC(C)(C)CC3=O)Nc3ncc(F)cc32)c1 (single isomer, unassigned) [Compound 168A]	2.2 10^−6 cm/s
CCC1(c2cccc(-c3c(C)nn(C)c3C)c2)C2=C(CC(C)(C)CC2=O)Nc2ncccc21 (single isomer, unassigned) [Compound 150A]	17 10^−6 cm/s
CC1(C)CC(=O)C2=C(C1)Nc1ncccc1C2(C)c1ccccc1 (single isomer, unassigned) [Compound 101A]	22 10^−6 cm/s
